# subject_of_test: human Nav1.7 (Homo sapiens)
# Construct: expressed in transfected cells
# Sequence (Q15858 whole entry): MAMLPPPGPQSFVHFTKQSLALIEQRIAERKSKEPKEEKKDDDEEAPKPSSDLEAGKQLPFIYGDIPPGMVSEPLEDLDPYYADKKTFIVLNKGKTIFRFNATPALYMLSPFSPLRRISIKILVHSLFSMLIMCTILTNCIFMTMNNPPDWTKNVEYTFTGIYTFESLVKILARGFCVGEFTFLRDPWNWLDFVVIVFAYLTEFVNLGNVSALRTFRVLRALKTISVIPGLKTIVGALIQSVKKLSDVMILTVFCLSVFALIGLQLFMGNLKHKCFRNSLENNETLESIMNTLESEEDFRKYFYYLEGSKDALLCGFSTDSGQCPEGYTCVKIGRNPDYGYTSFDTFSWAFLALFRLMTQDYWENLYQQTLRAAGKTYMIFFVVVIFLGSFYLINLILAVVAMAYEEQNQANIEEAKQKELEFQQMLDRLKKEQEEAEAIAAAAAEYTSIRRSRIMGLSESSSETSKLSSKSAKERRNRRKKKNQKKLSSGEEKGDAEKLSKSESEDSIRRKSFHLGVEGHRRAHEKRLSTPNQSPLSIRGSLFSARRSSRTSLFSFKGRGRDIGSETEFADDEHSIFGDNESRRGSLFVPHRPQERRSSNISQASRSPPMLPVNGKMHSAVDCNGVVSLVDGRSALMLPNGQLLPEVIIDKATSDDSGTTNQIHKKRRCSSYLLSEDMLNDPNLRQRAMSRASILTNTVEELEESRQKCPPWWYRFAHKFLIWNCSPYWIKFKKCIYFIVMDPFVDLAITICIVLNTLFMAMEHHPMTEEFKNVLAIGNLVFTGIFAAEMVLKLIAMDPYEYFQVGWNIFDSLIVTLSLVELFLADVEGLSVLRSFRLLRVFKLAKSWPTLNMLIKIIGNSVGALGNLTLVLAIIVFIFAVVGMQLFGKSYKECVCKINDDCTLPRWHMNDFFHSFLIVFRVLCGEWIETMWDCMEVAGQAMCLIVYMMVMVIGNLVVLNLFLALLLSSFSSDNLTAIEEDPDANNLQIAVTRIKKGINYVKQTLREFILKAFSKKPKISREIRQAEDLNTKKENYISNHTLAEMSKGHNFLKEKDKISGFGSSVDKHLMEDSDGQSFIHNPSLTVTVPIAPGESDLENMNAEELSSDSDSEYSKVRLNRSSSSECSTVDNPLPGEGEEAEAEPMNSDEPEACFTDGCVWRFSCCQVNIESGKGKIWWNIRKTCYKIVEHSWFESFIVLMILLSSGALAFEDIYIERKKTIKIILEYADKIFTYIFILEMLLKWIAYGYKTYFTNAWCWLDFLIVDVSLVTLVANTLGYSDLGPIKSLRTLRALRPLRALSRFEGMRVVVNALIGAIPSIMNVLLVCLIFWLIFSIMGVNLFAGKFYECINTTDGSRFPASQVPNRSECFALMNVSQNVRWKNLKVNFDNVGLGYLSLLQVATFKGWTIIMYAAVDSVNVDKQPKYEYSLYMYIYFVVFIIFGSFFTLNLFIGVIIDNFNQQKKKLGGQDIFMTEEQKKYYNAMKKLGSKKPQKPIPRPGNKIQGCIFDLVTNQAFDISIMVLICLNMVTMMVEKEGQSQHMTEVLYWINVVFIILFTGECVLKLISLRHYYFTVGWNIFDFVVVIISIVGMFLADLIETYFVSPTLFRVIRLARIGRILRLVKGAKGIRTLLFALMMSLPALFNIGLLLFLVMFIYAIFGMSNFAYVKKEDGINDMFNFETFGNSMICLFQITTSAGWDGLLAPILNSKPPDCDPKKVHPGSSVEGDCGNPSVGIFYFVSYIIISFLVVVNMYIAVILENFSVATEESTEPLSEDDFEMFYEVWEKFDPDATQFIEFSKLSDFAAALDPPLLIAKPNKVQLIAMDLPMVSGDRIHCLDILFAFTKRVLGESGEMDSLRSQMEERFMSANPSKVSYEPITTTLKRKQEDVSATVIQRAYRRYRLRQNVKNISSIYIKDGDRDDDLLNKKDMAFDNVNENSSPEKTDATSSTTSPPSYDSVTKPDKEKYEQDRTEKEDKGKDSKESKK
# Sequence (Q07699 19-218 partner): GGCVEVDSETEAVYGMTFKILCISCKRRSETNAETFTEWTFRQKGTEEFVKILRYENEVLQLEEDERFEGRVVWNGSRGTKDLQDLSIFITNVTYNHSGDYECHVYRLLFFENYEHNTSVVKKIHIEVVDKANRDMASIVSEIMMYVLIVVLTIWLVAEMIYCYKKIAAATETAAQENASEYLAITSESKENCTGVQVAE
# assay_info: Assessment of Nav1.7 activity on PatchXpress (voltage dependence / slow inactivation parameters)
# Assay type: cell-based
# condition_details: compound at 10 μM; before/after 30 sec conditioning pulse at 20 mV; relative to 0.2% DMSO vehicle control
hNav1.7: Reduction in current at 20 mV (normalized data) Delta Ratio values for the compounds below.
Number only, please.

The following compounds have reported results that may help.
                                   compound  reported_value
0  Cc1cccc(C)c1OCC(C)NC(=O)CN (centres unmarked) [Compound 17]           −0.10
1  N[C@@H](Cc1ccccc1)Cc1nc2cc(C(F)(F)F)cc(C(F)(F)F)c2[nH]1 [Compound 53]           −0.28
2  Cc1cccc(C)c1OCC(C)NC(=O)CN1CCNCC1=O (centres unmarked) [Compound 35]           −0.06
3  NC1(c2nc3cc(C(F)(F)F)cc(C(F)(F)F)c3[nH]2)Cc2ccccc2C1 [Compound 52]           −0.28
4  Cc1cccc(C)c1OCC(C)NC(=O)[C@H](N)C(C)C (some centres unmarked) [Compound 12]           −0.19

Exam item: I have this compound here, O=C(NCCc1c[nH]c2ccc(F)cc12)[C@@H]1CCCN1 [Compound 48] , and I need its recorded hNav1.7: Reduction in current at 20 mV (normalized data) Delta Ratio.
Marked response: −0.01

Exam item: Here is the next compound: O=C(NCCOc1cc(C(F)(F)F)cc(C(F)(F)F)c1)C1CCCN1 (centres unmarked) [Compound 14]
Marked response: −0.17

Exam item: Similarly, CC(C)(C)OC(=O)N[C@H](Cc1cccc(C(F)(F)F)c1)C(=O)NCc1nc2c(C(F)(F)F)cc(C(F)(F)F)cc2[nH]1 [Compound 73] ?
Marked response: −0.07

Exam item: Would you mind doing N[C@@H](Cc1ccccc1)c1nc2cc(C(F)(F)F)cc(C(F)(F)F)c2[nH]1 [Compound 51] as well?
Marked response: −0.35

Exam item: Cool, now O=C1NC(=O)C(c2cc(C(F)(F)F)cc(C(F)(F)F)c2)N1 (centres unmarked) [Compound 41]
Marked response: 0.00

Exam item: Check CC(C)(CC(=O)N1CCNCC1)c1nc2cc(C(F)(F)F)cc(C(F)(F)F)c2[nH]1 [Compound 62] too.
Marked response: −0.19
